target: BaF3-ETV6-NTRK3 (Homo sapiens, UniProt Q16288); construct: fused on or other part: P41212 (Transcription factor ETV6); test: Cell proliferation inhibition (CCK-8), BaF3-ETV6-NTRK3 stable strain; conditions: BaF3-ETV6-NTRK3, 72 hours
Sequence (Q16288 whole entry, the tested form may be a part): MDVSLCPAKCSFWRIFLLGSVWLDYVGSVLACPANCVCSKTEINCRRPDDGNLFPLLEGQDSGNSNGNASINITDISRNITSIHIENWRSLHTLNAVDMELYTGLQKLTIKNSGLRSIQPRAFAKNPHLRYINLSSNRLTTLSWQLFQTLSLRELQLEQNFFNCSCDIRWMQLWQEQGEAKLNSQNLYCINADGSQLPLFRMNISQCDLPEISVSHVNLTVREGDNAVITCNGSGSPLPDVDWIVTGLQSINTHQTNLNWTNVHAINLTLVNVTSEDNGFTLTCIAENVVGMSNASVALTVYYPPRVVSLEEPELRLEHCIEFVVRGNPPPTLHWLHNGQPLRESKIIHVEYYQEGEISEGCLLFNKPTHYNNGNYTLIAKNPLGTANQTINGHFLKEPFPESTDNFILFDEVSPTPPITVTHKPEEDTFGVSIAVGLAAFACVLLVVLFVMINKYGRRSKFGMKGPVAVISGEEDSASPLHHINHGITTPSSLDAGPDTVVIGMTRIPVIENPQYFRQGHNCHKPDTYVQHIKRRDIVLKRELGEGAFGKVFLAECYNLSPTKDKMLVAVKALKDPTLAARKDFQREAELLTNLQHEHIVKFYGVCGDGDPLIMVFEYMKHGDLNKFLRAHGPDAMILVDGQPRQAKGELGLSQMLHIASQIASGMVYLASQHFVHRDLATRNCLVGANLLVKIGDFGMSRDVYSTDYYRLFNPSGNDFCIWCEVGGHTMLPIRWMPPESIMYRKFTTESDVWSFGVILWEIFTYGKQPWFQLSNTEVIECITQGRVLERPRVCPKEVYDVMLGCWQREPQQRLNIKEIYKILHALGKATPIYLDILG
Quick rule for you: IC50 under 200 nM gets t, anything else gets f.

>>> group("C(=C\\c1n[nH]c2ccc(NCc3ccccc3)cc12)/c1ccccn1 [DYX-314]")
"t"
>>> group("O=C(Nc1ccc2[nH]nc(/C=C/c3ccccn3)c2c1)c1cc(F)cc(F)c1 [DYX-164]")
"f"

Query: Consider C[C@@H](Nc1cnc2[nH]nc(/C=C/c3ccccn3)c2c1)c1cc(F)cc(F)c1 [DYX-318] . Does its IC50 lie strictly below 200 nM?
Response: t

Query: Does this compound meet the criterion IC50 < 200 nM? COc1ccc(F)cc1Cc1ccc2[nH]nc(/C=C/c3ccccn3)c2c1 [Example D09F01]
Response: t

Query: Quick check: does Cc1cccc(/C=C/c2n[nH]c3ccc(Cc4cc(F)cc(F)c4)cc23)n1 [DYX-09] have IC50 under 200 nM?
Response: t

Query: A record lists Fc1cccc(Cc2ccc3[nH]nc(C#Cc4ccccn4)c3c2)c1 [DYX-025] . Is its IC50 below 200 nM?
Response: f

Query: Quick check: does Fc1ccccc1CNc1ccc2[nH]nc(/C=C/c3ccccn3)c2c1 [DYX-413] have IC50 under 200 nM?
Response: t

Query: Is IC50 strictly under 200 nM for the entry Fc1cc(Br)cc(CNc2ccc3[nH]nc(/C=C/c4ccccn4)c3c2)c1 [DYX-415] ?
Response: t

Query: Decide: IC50 of Fc1cc(F)cc(Cc2ccc3[nH]nc(/C=C/c4cnccn4)c3c2)c1 [DYX-05] strictly below 200 nM?
Response: f
